- assay method text: small-molecule microarray binders of probe aLefty2, primary screen, biochemical, biotinylated probe, 635/667 nm fluorescence (AID 1094);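 also: score merges spot fluorescence near 667 nm with spot signal-to-noise ratio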
- measurement conditions: higher = more signal
Everything with composite z-score lower than -0.02 is Not fulfilled; everything else, including exactly -0.02, is Fulfilled.

compound | qualitative label
COC(=O)[C@]1(CO)N=C(c2ccc(OCCCO)cc2)O[C@@H]1c1ccccc1N=[N+]=[N-] | Not fulfilled
O=C1CCCC2OC12C(O)CCc1ccccc1 (stereo not drawn) | Not fulfilled
Cc1ccc(S(=O)(=O)N[C@@H]2COC(=O)[C@H](C)COC(=O)CC=C[C@H]2C)cc1 | Not fulfilled
Cc1ccc(F)cc1S(=O)(=O)N[C@@H]1CCN(Cc2ccc(CC(C)C)cc2)C1 | Not fulfilled
C=CCOC(=O)[C@H]1[C@@H]2C(=O)O[C@@H](c3ccccc3)[C@@H](c3ccccc3)N2[C@@H](c2ccc(OCCOC(=O)[C@H]3C[C@H]4C(=O)N[C@@H](Cc5ccccc5)C(=O)N4[C@H]3c3ccc(O)cc3)cc2)[C@]12C(=O)Nc1ccccc12 | Fulfilled
COCC(=C=CC[C@@H](O)c1ccccc1OCCO)CCO | Fulfilled

Query: Has CCCC[C@H]1OB(O)C[C@H]2C1=C(C)C[C@H]1C(=O)N(C)C(=O)[C@H]12 a recorded composite z-score greater than or equal to -0.02?
Response: Not fulfilled

Query: Has COCCOC(=O)N1C(=O)[C@@]2(c3cc(C#Cc4ccc(OC)cc4)ccc31)[C@H](C(=O)N1CCN(c3ncccn3)CC1)[C@H]1C(=O)O[C@H](c3ccccc3)[C@H](c3ccccc3)N1[C@@H]2c1ccc(OCCO)cc1 a recorded composite z-score greater than or equal to -0.02?
Response: Fulfilled

Query: Has CO[C@H]1COC(=O)[C@@H]2CCCN2C(=O)CC=C[C@@H](C)[C@H](OC)COC(=O)CC=C[C@@H]1C a recorded composite z-score greater than or equal to -0.02?
Response: Not fulfilled

Query: Has CC(C)CON=C1C[C@@H](O)[C@@H](O)[C@@H]2[C@@H]3C(=O)N([C@@H](C)c4ccccc4)C(=O)[C@@H]3CC[C@H]12 a recorded composite z-score greater than or equal to -0.02?
Response: Not fulfilled

Query: Has CCCCCN1CC=CC23O[C@@H]4C=CCOC(=O)[C@@H]4[C@H]2C(=O)N(CCCCCCO)[C@@H]3C1=O (stereo partly drawn) a recorded composite z-score greater than or equal to -0.02?
Response: Not fulfilled

Query: Has CCCNC(=O)OC[C@H]1O[C@H](CCON=CC[C@@H]2C=C[C@H](OC(C)=O)[C@@H](COC(C)=O)O2)C=C[C@@H]1Oc1ccc(OC)cc1 a recorded composite z-score greater than or equal to -0.02?
Response: Fulfilled

Query: Has CO[C@H]1COC(=O)[C@H](C)NC(=O)[C@@H](C)COC(=O)CC=C[C@@H]1C a recorded composite z-score greater than or equal to -0.02?
Response: Not fulfilled

* * *

- assay method text: binders from COS7 lysate, DM2A8 probe, primary screen, torsin A project, cell lysate, small-molecule microarray, fluorescence 635/667 (AID 1065)
- measurement conditions: higher = more signal, COS7 lysate expressing mutant human TOR1A
result type: composite z-score

// worked examples, composite z-score included
molecule | composite z-score
COCCOC(=O)N1C(=O)[C@@]2(c3cc(C#CC4(O)CCCCCC4)ccc31)[C@H](c1ccc(OCCO)cc1)N1[C@H](c3ccccc3)[C@H](c3ccccc3)OC(=O)[C@H]1[C@@H]2C(=O)NC[C@H](O)c1ccccc1 | 1.11
C[C@@H]1CC[C@H]2C(=O)O[C@H](COc3ccc(C(C)(C)C)cc3)CN2[C@H]1c1ccc(Br)cc1 | -0.16

Could you now look at the following molecule, please?
Query: For the molecule O=C1C2C=CC(C(O)c3ccc([N+](=O)[O-])cc3)N(Nc3ccc([N+](=O)[O-])cc3)C2C(=O)N1c1ccccc1 (stereo not drawn) , give its reported composite z-score.
Response: -0.0145

* * *

- assay method text: S. cerevisiae growth modulation with rapamycin, primary screen, strain BY4716, OD600, 96 h (AID 1091); also: test concentration not given here
- measurement conditions: higher = more signal, called active from +8 up or from −8 down
result type: z-score
Lab note: write the figure by itself, no unit.

molecule | assay result
CC(C)(C)N1CC=CC23O[C@@H]4C=CCCOC(=O)C4[C@H]2C(=O)N(CCCCCO)[C@@H]3C1=O (some centres undefined) | -0.215
CCCNC(=O)[C@@H]1c2ccccc2C(=O)N(c2ccc(C)cn2)[C@H]1c1ccc(CO)cc1 | -0.926
CC(CCC(=O)OC[C@H]1O[C@H](C#Cc2ccccc2)C=C[C@@H]1Oc1ccc(C)cc1)=NO[C@@H](C)c1cn([C@H](CO)Cc2ccccc2)nn1 | 12.2

Query: For the molecule CO[C@H]1COC(=O)CC=C[C@H](C)[C@@H](NS(=O)(=O)c2ccc(C)cc2)COC(=O)CC=C[C@@H]1C , give its reported z-score.
Response: -2.35

Query: For the molecule CO[C@H]1COC(=O)[C@H](C)NC(=O)[C@@H](C)COC(=O)CC=C[C@@H]1C , give its reported z-score.
Response: -0.564

* * *

- assay method text: modulators of S6 phosphorylation in cells, primary screen, cell-based, A549, cytoblot, luminescence, serum-stimulated (AID 1158);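 also: serum-stimulated A549 lung adenocarcinoma cells; signal is phosphorylated S6 detected by cytoblot immunostaining with HRP secondary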
- measurement conditions: A549 phospho-S6 cytoblot, 5 h, higher = more signal
Everything with z-score lower than -0.04 is False; everything else, including exactly -0.04, is True.

compound | qualitative label
CCOC(=O)[C@H](CC(C)C)NC(=O)CCC1CC(OC(=O)NCCc2ccc(F)cc2)CC2(CCCC(COC(=O)NCc3ccccc3)O2)O1 (stereo not given in full) | True
CCOC(=O)CCN1C(=O)[C@H]2[C@H]3[C@H](O)C=CC(=O)[C@@H]3CC[C@H]2C1=O | True
CCCNC(=O)[C@@H]1c2ccccc2C(=O)N(c2ccc(C)cn2)[C@H]1c1ccc(CO)cc1 | True

Query: Has COC(=O)c1c(CC[C@@H](CO)NC(=O)N[C@H](Cc2ccccc2)Cn2cc(-c3ccccc3N)nn2)oc(C(C)=O)c1C(=O)OC a recorded z-score greater than or equal to -0.04?
Response: True

Query: Has COc1cccc([C@@H]2Oc3ccc(Br)cc3C(=O)[C@H]2O)c1 a recorded z-score greater than or equal to -0.04?
Response: False

Query: Has COC(=O)C1=CCC(c2cccc(Cl)c2)O1 (stereo not given) a recorded z-score greater than or equal to -0.04?
Response: True

Query: Has Cc1ccc(C2CC=C(C(=O)O)CN2S(=O)(=O)c2ccc(C)cc2)cc1 (stereo not given) a recorded z-score greater than or equal to -0.04?
Response: False

Query: Has COc1ccc([Si](C)(C)[C@@H]2[C@@H](CC(=O)N3CCC[C@H]3CO)O[C@]3(C(=O)N(Cc4cccc(N5CCC5=O)c4)c4ccccc43)[C@H]2C)cc1 a recorded z-score greater than or equal to -0.04?
Response: True

Query: Has O=C(NN=C1C[C@@H](O)[C@@H](O)[C@@H]2[C@@H]3C(=O)N(c4cccc(Oc5ccccc5)c4)C(=O)[C@@H]3CC[C@@H]12)OCc1ccccc1 a recorded z-score greater than or equal to -0.04?
Response: False

Query: Has COCCOC(=O)N1C(=O)[C@@]2(c3cc(C#CCNC(N)=O)ccc31)[C@H](c1ccccc1OCCO)N1[C@H](c3ccccc3)[C@H](c3ccccc3)OC(=O)[C@H]1[C@@H]2C(=O)N1CCN(c2ncccn2)CC1 a recorded z-score greater than or equal to -0.04?
Response: True

Query: Has COc1ccc(OC[C@H]2Cc3c(-c4ccccc4)nc4c(c3CO2)CN(CCOc2ccccc2)CC4)cc1 a recorded z-score greater than or equal to -0.04?
Response: True

Query: Has O=C1[C@H]2[C@H]3[C@H](O)[C@H](O)CC(=NOC[C@@H](O)COCc4ccco4)[C@H]3CC[C@H]2C(=O)N1C1CCCCC1 a recorded z-score greater than or equal to -0.04?
Response: True

Query: Has CO[C@H]1COC(=O)[C@@H]2CCCN2C(=O)[C@@H](C)COC(=O)CC=C[C@@H]1C a recorded z-score greater than or equal to -0.04?
Response: False

Query: Has CC(C)c1ccc(NN2C(C(O)c3ccc4c(c3)OCO4)C=CC3C(=O)N(c4ccccc4)C(=O)C32)cc1 (stereo not given) a recorded z-score greater than or equal to -0.04?
Response: False

Query: Has CC(C)[Si]1(C(C)C)O[C@@H](c2ccccc2)c2cc(C3CC3)nc(-c3ccccc3)c21 a recorded z-score greater than or equal to -0.04?
Response: True

* * *

- experimental target: Dihydroorotate dehydrogenase (quinone), mitochondrial (Plasmodium falciparum (isolate 3D7)) (UniProt Q08210)
- Sequence (Q08210 whole entry, looked up): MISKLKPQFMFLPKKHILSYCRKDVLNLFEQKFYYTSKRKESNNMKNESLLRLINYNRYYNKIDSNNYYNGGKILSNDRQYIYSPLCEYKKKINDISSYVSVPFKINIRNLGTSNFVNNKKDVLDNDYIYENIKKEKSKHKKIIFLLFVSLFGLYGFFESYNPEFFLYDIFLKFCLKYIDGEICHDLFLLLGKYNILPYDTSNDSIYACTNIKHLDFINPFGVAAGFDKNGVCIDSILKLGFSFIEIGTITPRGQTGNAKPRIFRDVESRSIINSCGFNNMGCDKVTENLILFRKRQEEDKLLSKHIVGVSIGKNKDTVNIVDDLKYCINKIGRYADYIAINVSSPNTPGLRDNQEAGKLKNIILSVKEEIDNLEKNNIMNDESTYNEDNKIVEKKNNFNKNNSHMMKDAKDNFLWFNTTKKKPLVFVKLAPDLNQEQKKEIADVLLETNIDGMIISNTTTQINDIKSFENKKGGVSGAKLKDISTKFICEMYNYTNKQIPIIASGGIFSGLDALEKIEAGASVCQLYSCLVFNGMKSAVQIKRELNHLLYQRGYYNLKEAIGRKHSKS
- assay method text: PfDHODH enzyme inhibitors, primary screen, biochemical, C-terminal His tag, absorbance 600 nm (AID 1175);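 also: recombinant parasite enzyme with a five histidine tag at its C terminus; test concentration not given here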
- measurement conditions: DCIP absorbance 600 nm, higher = more signal, called active from +8 up or from −8 down
Below, each of the compounds is paired with its reported composite z-score value.
Lab note: write the figure by itself, no unit.

// worked examples, composite z-score included
compound | composite z-score
COCCCNC(=O)[C@@]1(C)c2ccccc2C(=O)N(Cc2ccc(OC(F)(F)F)cc2)[C@H]1c1ccc(CO)cc1 | -0.617
CC(=O)OC[C@H]1O[C@H](C#CCCCc2ccccc2)C=C[C@@H]1OC(C)=O | -0.791
CN(C)CCCNC(=O)[C@@H]1c2ccccc2C(=O)N(Cc2cc(F)cc(C(F)(F)F)c2)[C@H]1c1ccc(CO)cc1 | 0.0999
CCOC(=O)NN=C1C[C@@H](O)[C@@H](O)[C@@H]2[C@@H]3C(=O)N(C[C@@H]4CCCO4)C(=O)[C@@H]3CC[C@@H]12 | -0.851
O=C1C[C@@H](O)[C@@H](O)[C@@H]2[C@@H]3C(=O)N(c4cccc(Oc5ccccc5)c4)C(=O)[C@@H]3CC[C@@H]12 | -0.453
O=C1[C@H]2[C@H]3[C@H](O)[C@H](O)CC(=NOCc4ccccc4)[C@H]3CC[C@H]2C(=O)N1c1cccc(Oc2ccccc2)c1 | -0.278

Query: For the compound CCOc1ccc(N2C(=O)/C(=C/C=C/c3ccccc3OC)S(=O)(=O)C2c2cccc([N+](=O)[O-])c2)cc1 (stereo not drawn) , give its reported composite z-score.
Response: -1.74

Query: For the compound C#CCCCON=C1C[C@@H](O)[C@@H](O)[C@@H]2[C@@H]3C(=O)N(c4cccc(Oc5ccccc5)c4)C(=O)[C@@H]3CC[C@@H]12 , give its reported composite z-score.
Response: 1
